Catalogue of Kd readings, one per entry.
# system name: CD38 antigen on the surface of cells (U266 CD38+, MOLP8, Daudi, T-ALL cell lines, activated T cells) (human, UniProt P28907 1-300)
readout name: Kd (nM)

[[record]]
binder = "27B6 scFv (tested as anti-CD38 CARs, versions V1, V2 and V3) (scFv) scFv: QVQLKQSGPGLVQPSQSLSITCTVSGFSLTSYNIDWVRQSPGKGLEWLGVIWSGGSTDYNAAFISRLKISKDDSKSQVFFKMNSLQSDDTAIYYCARHSPLVSTPDWYFDVWGAGTTVTVSSGGGGSGGGGSGGGGSQIVLTQSPAIMSASPGEKVTMTCSTSSSVSYMHWYQQKSGTSPKRWIYDTSKLASGVPARFSGSGSGTSYSLTINNMEAEDAATYSCQQWSSYPPTFGGGTKLEIK"
unit_label = "nM"
measured_number = 2.2

[[record]]
binder = "25A10 scFv (tested as anti-CD38 CARs, versions V1, V2 and V3) (scFv) scFv: EVQLQQSGAELVRPGASVKLSCTASGFNIKDSLIHWVKQRPEQGLEWIGWIDPEDDKTKYAPKFQDKATLTADTSSNTAYLQLSTLTSEDTAIYYCVSRYINYYFAYWGQGTTLTVSSGGGGSGGGGSGGGGSDIVMTQSPSSLTVTAGEKVTMSCKSSQSLLHSGNQRNYLTWYQQKPGQPPKLLIYWASTRESGVPDRFTGSGSGTDFTLTISSVQAEDLAVYYCQNDYDYPYTFGGGTKLEIK"
unit_label = "nM"
measured_number = 0.25

